Molecular target: T1, Human CD19-his protein (human, UniProt P15391 20-291)
T1 construct: bought protein; also called recombinant human CD19-His; CD19 full-length protein; not shown: His tag
T1 sequence (looked up): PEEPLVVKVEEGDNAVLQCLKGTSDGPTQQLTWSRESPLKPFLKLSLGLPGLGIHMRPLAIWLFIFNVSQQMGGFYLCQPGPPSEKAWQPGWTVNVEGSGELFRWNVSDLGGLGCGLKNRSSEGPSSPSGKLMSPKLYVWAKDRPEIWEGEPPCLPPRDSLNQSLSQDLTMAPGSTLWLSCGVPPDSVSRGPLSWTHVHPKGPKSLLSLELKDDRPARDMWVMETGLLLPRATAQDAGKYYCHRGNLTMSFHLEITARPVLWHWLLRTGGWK
Assay: SPR Biacore, method of example 7.1, human CD19-His
measuredMetric: kon (M⁻¹ s⁻¹)
Write the answer as a number in M⁻¹ s⁻¹, unit excluded.

>>> measuredvalue("F3.121.4-L2H2 (antibody, mouse IgG1, kappa, V domains shown, humanized antibody of F3.121.4, VL2+VH2, murine IgG1 constant regions) VH: EVQLVQSGAEVKKPGASVKVSCKASGYTFTNYWMHWVRQAPGQGLEWMGEIDPSDNYANYNQEFQGRVTITVDKSASTAYMELSSLRSEDTAVYYCARHDGYFGALDYWGQGTTVTVSS VL: EIVLTQSPDFQSVTPKEKVTITCSASSSISSNYLHWYQQKPDQSPKLLIKRTSNLASGVPSRFSGSGSGTDFTLTINSLEAEDAATYYCQQASSIPRMFTFGQGTKLEIKR")
134000
>>> measuredvalue("F3.121.4-L2H1 (antibody, mouse IgG1, kappa, V domains shown, humanized antibody of F3.121.4, VL2+VH1, murine IgG1 constant regions) VH: EVQLVQSGAEVKKPGASVKVSCKASGYTFTNYWMHWVRQAPGQRLEWMGEIDPSDNYANYNQEFQGRVTITVDKSASTAYMELSSLRSEDTAVYYCARHDGYFGALDYWGQGTTVTVSS VL: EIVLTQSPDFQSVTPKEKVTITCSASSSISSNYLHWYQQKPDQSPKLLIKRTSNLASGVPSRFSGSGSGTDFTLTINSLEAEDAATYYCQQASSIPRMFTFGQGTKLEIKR")
130000
>>> measuredvalue("F3.121.4-L1H2 (antibody, mouse IgG1, kappa, V domains shown, humanized antibody of F3.121.4, VL1+VH2, murine IgG1 constant regions) VH: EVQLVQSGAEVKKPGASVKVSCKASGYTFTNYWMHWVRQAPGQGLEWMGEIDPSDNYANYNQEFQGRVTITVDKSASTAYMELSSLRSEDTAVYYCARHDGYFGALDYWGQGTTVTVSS VL: EIVLTQSPATLSLSPGERATLSCSASSSISSNYLHWYQQKPGQAPRFLIYRTSNLASGIPARFSGSGSGTDFTLTISSLEPEDFAVYYCQQASSIPRMFTFGQGTKLEIKR")
118000
>>> measuredvalue("F3.121.4-L1H1 (antibody, mouse IgG1, kappa, V domains shown, humanized antibody of F3.121.4, VL1+VH1, murine IgG1 constant regions) VH: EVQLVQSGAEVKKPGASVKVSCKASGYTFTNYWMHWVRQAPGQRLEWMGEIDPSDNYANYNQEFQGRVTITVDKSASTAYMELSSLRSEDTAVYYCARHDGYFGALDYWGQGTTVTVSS VL: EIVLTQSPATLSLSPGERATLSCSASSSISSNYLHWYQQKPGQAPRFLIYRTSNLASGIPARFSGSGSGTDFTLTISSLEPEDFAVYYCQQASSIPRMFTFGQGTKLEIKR")
121000
>>> measuredvalue("F3.121.4 (antibody, human IgG1, V domains shown, human-murine chimeric antibody, human IgG1 constant; also called chimeric antibody F3.121.4) VH: QVQLQQPGAELVVPGTSVKLSCKASGYTFTNYWMHWVKQRPGQGLEWIGEIDPSDNYANYNQEFQGKATLTVDKSSSTAYMQLSSLTSDDSAVYYCARHDGYFGALDYWGQGTSVTVSS VL: EIVLTQSPTTMAASPGEKITITCSASSSISSNYLHWYQQKPGFSPKFLIYRTSNLASGVPARFSGSGSGTSYSLTIGTMEAEDVATYYCQQASSIPRMFTFGSGTKLEIK")
327000
>>> measuredvalue("F3.121.4-L3H1 (antibody, mouse IgG1, kappa, V domains shown, humanized antibody of F3.121.4, VL3+VH1, murine IgG1 constant regions) VH: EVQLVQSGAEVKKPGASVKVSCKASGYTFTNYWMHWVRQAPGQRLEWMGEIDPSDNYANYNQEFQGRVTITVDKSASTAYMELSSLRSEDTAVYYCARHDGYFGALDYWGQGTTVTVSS VL: EIVLTQSPDFQSVTPKEKVTITCSASSSISSNYLHWYQQKPDQSPKFLIYRTSNLASGVPSRFSGSGSGTDFTLTINSLEAEDAATYYCQQASSIPRMFTFGQGTKLEIKR")
130000

Proceed to the following item.
Data request: For the binder F3.121.4-L3H2 (antibody, mouse IgG1, kappa, V domains shown, humanized antibody of F3.121.4, VL3+VH2, murine IgG1 constant regions) VH: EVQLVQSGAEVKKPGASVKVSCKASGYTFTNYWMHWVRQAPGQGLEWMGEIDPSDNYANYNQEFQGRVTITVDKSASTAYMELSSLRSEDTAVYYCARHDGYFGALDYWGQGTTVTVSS VL: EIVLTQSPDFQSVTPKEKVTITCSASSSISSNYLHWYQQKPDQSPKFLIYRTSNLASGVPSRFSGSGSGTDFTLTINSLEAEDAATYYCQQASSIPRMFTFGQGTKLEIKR , give its measured kon value.
Data returned: 113000
